Below: a set of entries, each annotated with reported pIC50.
Experiment: Inhibition of caspase-like activity of 20S proteasome catalytic core from rabbit erythrocytes using Z-LLE-NA as substrate preincubated for 15 mins prior to substrate addition measured after 45 mins
Parameters: species or system Oryctolagus cuniculus
pIC50: −log10 of the molar value.
readout-label: pIC50

CC1(C)OC(=O)c2c1ccn(NC(N)=S)c2=O; 4.97
Cn1ccc2c(c1=O)C(=O)OC2(C)C; 4.98
CCOC(=O)Cn1ccc2c(c1=O)C(=O)OC2(C)C; 4.88
CC1(C)OC(=O)c2c1ccn(CCCN1CCCC1)c2=O; 4.94
